Where these numbers come from: PubChem BioAssay (Tox21)

Procedure Text: p53 small molecule agonists, cell-based qHTS assay (AID 1963582); as to activation: % is scaled to controls: 0 for no effect and ±100 for the full control effect
Reported Conditions: HCT-116 p53RE-bla reporter, beta-lactamase FRET ratio, 16 h; series mostly up to 66 µM
Excerpt: National Center for Advancing Translational Sciences [NCATS] Division of Preclinical Innovation [DPI] U.S. Environmental Protection Agency [EPA] National Institutes of Environmental Health Sciences [NIEHS] National Toxicology Program [NTP] U.S. Food and Drug Administration [FDA] p53, a tumor suppressor protein, is activated following cellular insult, including DNA damage and other cellular stresses. […] The activation of the reporter gene under culture conditions can be detected by fluorescence intensity. […]
Inconclusive results are not listed. Active and inactive are the calls of the source. Calls follow the shape of the dose curve; as a rule, active = well fitted activation curve with a large enough effect in the signal ratio in the repeat runs (not every such curve was filed as active); inconclusive = weak or mixed curves; inactive = flat fitted curve, though single readings scatter; the % refers to the signal ratio.
Assign a class; possible classes are TRUE for active, FALSE for inactive

Exercise: What classification did CCCCC(CC)COC(=O)c1c(Br)c(Br)c(Br)c(Br)c1C(=O)OCC(CC)CCCC (stereo not given) end up with in this test?
Key: FALSE

Exercise: What classification did O=C(CCl)CCl end up with in this test?
Key: FALSE

Exercise: What classification did CCC(C)c1cc([N+](=O)[O-])cc([N+](=O)[O-])c1O (stereo not given) end up with in this test?
Key: FALSE

Exercise: What classification did Clc1cccc(C(Cl)(Cl)Cl)n1 end up with in this test?
Key: FALSE

Exercise: What classification did CCN(CC)C(=O)SCc1ccc(Cl)cc1 end up with in this test?
Key: FALSE

Exercise: What classification did Nc1nc(N)nc(NC2CC2)n1 end up with in this test?
Key: FALSE

Exercise: What classification did OCC(O)CCl (stereo not given) end up with in this test?
Key: FALSE

Exercise: What classification did CCCCNC(=O)n1c(NC(=O)OC)nc2ccccc21 end up with in this test?
Key: TRUE

Exercise: What classification did Cc1ccc(N)cc1C end up with in this test?
Key: FALSE

Exercise: What classification did CC(Cl)Cl end up with in this test?
Key: FALSE

Exercise: What classification did CCOP(=S)(OCC)SCn1c(=O)oc2cc(Cl)ccc21 end up with in this test?
Key: FALSE

Exercise: What classification did C=C(C)CCl end up with in this test?
Key: FALSE

Exercise: What classification did CCCCc1c(C)nc(NCC)[nH]c1=O end up with in this test?
Key: FALSE

Exercise: What classification did N#Cc1cccc(C#N)c1 end up with in this test?
Key: FALSE

Exercise: What classification did C[N+](=O)[O-] end up with in this test?
Key: FALSE

* * *

Measured On: Muscarinic acetylcholine receptor M1 (Homo sapiens) (UniProt P11229)
Sequence (P11229 whole entry, looked up): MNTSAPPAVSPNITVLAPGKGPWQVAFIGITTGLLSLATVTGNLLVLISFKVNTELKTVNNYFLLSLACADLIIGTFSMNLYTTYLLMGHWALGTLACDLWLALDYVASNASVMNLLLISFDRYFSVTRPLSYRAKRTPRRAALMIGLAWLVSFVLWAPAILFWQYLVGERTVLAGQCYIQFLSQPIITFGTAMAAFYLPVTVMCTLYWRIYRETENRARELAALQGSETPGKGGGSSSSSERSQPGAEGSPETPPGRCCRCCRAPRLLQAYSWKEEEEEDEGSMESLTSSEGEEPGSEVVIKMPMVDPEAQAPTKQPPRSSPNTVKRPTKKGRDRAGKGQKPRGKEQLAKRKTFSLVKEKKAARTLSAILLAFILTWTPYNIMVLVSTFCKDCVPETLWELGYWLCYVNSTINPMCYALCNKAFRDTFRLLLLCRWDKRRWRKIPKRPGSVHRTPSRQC
Procedure Text: Cholinergic receptor muscarinic 1 (CHRM1) small molecule antagonists, cell-based qHTS assay (AID 1963588); also: nearly all actives have a fitted effect of over 40% in size
Reported Conditions: CHRM1-CHO antagonist mode, calcium flux fluorescence; series mostly up to 61.5 µM
Results filed as inconclusive are left out. Active and inactive are the calls of the source. Calls follow the shape of the full dose curve.
Assign a class; possible classes are T for active, F for inactive

Exercise: What classification did CCCCCCn1cc[n+](C)c1 end up with in this test?
Key: F

Exercise: What classification did O=C(O)C1C(C(=O)O)C2(Cl)C(Cl)=C(Cl)C1(Cl)C2(Cl)Cl (stereo unspecified) end up with in this test?
Key: F

Exercise: What classification did CNC(=O)Oc1cccc2c1OC(C)(C)C2 end up with in this test?
Key: F

Exercise: What classification did CCCCCCCCCCCOC(=O)c1ccccc1C(=O)OCCCCCCCCCCC end up with in this test?
Key: F

Exercise: What classification did C=CCN1CC[C@]23CCCC[C@H]2[C@H]1Cc1ccc(O)cc13 end up with in this test?
Key: F

Exercise: What classification did Cc1cc(C)cc(C)c1 end up with in this test?
Key: F

Exercise: What classification did C=CC1CC=CCC1 (stereo unspecified) end up with in this test?
Key: F

Exercise: What classification did O=C(Cl)/C=C/C(=O)Cl end up with in this test?
Key: T

Exercise: What classification did COc1ccc(C=O)cc1OC end up with in this test?
Key: F

Exercise: What classification did Oc1ccc(Cl)c(Cl)c1 end up with in this test?
Key: F

Exercise: What classification did CCCCC(CC)C(=O)Cl (stereo unspecified) end up with in this test?
Key: F

Exercise: What classification did CN(C)C(=S)SSC(=S)N(C)C end up with in this test?
Key: F

Exercise: What classification did OCCSSCCO end up with in this test?
Key: F

Exercise: What classification did ClCC1CO1 (stereo unspecified) end up with in this test?
Key: F

Exercise: What classification did C=CC(Cl)CCl (stereo unspecified) end up with in this test?
Key: F

Exercise: What classification did CC(C)(C)OOC(C)(C)C end up with in this test?
Key: F

* * *

Measured On: Gonadotropin-releasing hormone receptor (Homo sapiens) (UniProt P30968)
Sequence (P30968 whole entry, looked up): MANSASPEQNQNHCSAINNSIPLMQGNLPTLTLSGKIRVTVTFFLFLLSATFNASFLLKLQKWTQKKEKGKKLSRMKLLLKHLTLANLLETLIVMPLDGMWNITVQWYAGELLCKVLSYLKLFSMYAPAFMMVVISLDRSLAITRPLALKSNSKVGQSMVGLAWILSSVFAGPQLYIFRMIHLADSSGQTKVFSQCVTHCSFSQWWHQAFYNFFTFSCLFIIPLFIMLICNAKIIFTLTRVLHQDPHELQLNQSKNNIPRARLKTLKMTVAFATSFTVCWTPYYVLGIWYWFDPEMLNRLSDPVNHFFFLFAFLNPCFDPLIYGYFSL
Procedure Text: Human gonadotropin-releasing hormone receptor (GnRHR) small molecule agonists, calcium flux assay in GnRHR-HEK293 cells (AID 1920063); also: % is scaled to controls: 0 for no effect and ±100 for the full control effect; nearly all actives have a fitted effect of over 35% in size
Reported Conditions: calcium flux fluorescence, agonist mode; series mostly up to 57.6 µM
Activity calls are given as the source filed them. Calls come from the whole dose curve.
Measured Property: outcome

Worked cases, outcome given:
CN(C)P(=O)(N(C)C)N(C)C :: inactive
C=CC(=O)OCC(C)C :: inactive
N#Cc1c(Cl)c(Cl)c(Cl)c(C#N)c1Cl :: inactive
C[C@H]1C(=O)O[C@@H]2CCN3CC=C(COC(=O)[C@](C)(O)[C@]1(C)O)[C@H]23 :: inactive
CN(C)c1ccccc1 :: inactive

Exercise: I am curious: what outcome value has been reported for O=c1[nH]c(=O)n(Cl)c(=O)n1Cl ?
Key: inactive

Exercise: I am curious: what outcome value has been reported for CNC ?
Key: inactive

Exercise: I am curious: what outcome value has been reported for CN1C(=O)CCS(=O)(=O)C1c1ccc(Cl)cc1 (stereo unspecified) ?
Key: inactive

Exercise: I am curious: what outcome value has been reported for C=C1CC[C@@]2(O)[C@H]3Cc4ccc(O)c5c4[C@@]2(CCN3CC2CC2)[C@H]1O5 ?
Key: inactive

Exercise: I am curious: what outcome value has been reported for Clc1ccc(C(Cl)(Cl)Cl)cc1 ?
Key: inactive

Exercise: I am curious: what outcome value has been reported for CCCCC#N ?
Key: inactive

* * *

Procedure Text: G protein-coupled receptor (GPCR) small molecule agonists, calcium flux assay: HEK293 wild type cell line counter screen (AID 1920065); also: % is scaled to controls: 0 for no effect and ±100 for the full control effect
Reported Conditions: HEK293 WT calcium flux, fluorescence, agonist mode; series mostly up to 57.6 µM
Activity calls are given as the source filed them. Calls follow the shape of the full dose curve.
Measured Property: activation

Worked cases, activation given:
CC(=O)C=C(C)C :: inactive
Brc1ccc(Oc2ccccc2)cc1 :: inactive
NC(=O)CN1CCCC1=O :: inactive
BrCC(Br)c1ccccc1 (centres undefined) :: inactive
OCCOCCO :: inactive
O=C(O)CCCc1ccc(N(CCCl)CCCl)cc1 :: inactive
Cc1ccccc1N :: inactive
Nc1ccc(Cl)c(Cl)c1 :: inactive

Pending compound:
Exercise: I am curious: what activation value has been reported for CN1CSC(=S)N(C)C1 ?
Key: inactive

* * *

Measured On: D(2) dopamine receptor (Homo sapiens) (UniProt P14416)
Sequence (P14416 whole entry, looked up): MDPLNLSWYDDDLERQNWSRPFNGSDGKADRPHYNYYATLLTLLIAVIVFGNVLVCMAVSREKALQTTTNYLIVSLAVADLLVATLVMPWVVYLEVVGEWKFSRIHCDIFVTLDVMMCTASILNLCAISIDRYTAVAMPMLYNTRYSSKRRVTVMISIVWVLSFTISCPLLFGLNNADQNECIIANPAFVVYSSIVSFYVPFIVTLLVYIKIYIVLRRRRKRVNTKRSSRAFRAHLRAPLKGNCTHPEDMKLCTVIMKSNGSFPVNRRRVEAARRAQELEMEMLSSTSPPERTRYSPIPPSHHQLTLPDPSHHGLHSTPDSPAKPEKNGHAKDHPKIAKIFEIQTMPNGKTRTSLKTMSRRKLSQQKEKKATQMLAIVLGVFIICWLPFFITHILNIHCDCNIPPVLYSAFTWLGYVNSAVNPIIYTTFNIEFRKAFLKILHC
Procedure Text: Dopamine D2 receptor (DRD2) small molecule antagonists, cell-based qHTS assay (AID 1963595)
Reported Conditions: HEK293-DRD2 cAMP HTRF antagonist mode; series mostly up to 92.4 µM
Records with an inconclusive call do not appear. Activity calls are given as the source filed them. Calls follow the shape of the dose curve; as a rule, active = well fitted inhibition curve with a large enough effect in the signal ratio in the repeat runs, with a control signal flat; inconclusive = weak or mixed curves, or effect the other way; inactive = flat fitted curve, though single readings scatter; the % refers to the signal ratio.
Assign a class; possible classes are label 1 (active), label 0 (inactive)

Exercise: What classification did Cc1cccc(C)c1NC(=O)CN1CCCC1=O end up with in this test?
Key: label 0

Exercise: What classification did CNC(=O)O/N=C/C(C)(C)S(C)=O (stereo unspecified) end up with in this test?
Key: label 0

Exercise: What classification did O=C(O)COc1ccc(Cl)cc1Cl end up with in this test?
Key: label 0

Exercise: What classification did COC(=O)C(Br)CBr (stereo unspecified) end up with in this test?
Key: label 0

Exercise: What classification did CC(C)(C)OOC(C)(C)C end up with in this test?
Key: label 0

Exercise: What classification did Cc1cc(Cl)ccc1OCC(=O)O end up with in this test?
Key: label 0

Exercise: What classification did CCCCN(CCCC)SN(C)C(=O)Oc1cccc2c1OC(C)(C)C2 end up with in this test?
Key: label 0

Exercise: What classification did CCCCCCCCn1sccc1=O end up with in this test?
Key: label 0

Exercise: What classification did C[C@]12CCC(=O)C[C@@H]1CC[C@@H]1[C@@H]2CC[C@]2(C)[C@@H](O)CC[C@@H]12 end up with in this test?
Key: label 0

Exercise: What classification did O=P(OCCCl)(OCCCl)OCCCl end up with in this test?
Key: label 0

Exercise: What classification did NCCOS(=O)(=O)O end up with in this test?
Key: label 0

Exercise: What classification did N#CCCCCC#N end up with in this test?
Key: label 0

Exercise: What classification did ClCC(Cl)CCl end up with in this test?
Key: label 0

Exercise: What classification did Nc1cc(Cl)cc(Cl)c1 end up with in this test?
Key: label 0

Exercise: What classification did CNC(=O)Oc1ccccc1OC(C)C end up with in this test?
Key: label 0

Exercise: What classification did Cc1cc(Cl)ccc1OCCCC(=O)O end up with in this test?
Key: label 0

Exercise: What classification did c1ccoc1 end up with in this test?
Key: label 0

Exercise: What classification did CCOC(=O)C(O)(c1ccc(Cl)cc1)c1ccc(Cl)cc1 end up with in this test?
Key: label 0

Exercise: What classification did CCNc1nc(NC(C)(C)C)nc(SC)n1 end up with in this test?
Key: label 0

Exercise: What classification did CN(C)CCc1ccc(O)cc1 end up with in this test?
Key: label 0

Exercise: What classification did CC1(C)C(C=C(Cl)Cl)C1C(=O)OC(C#N)c1cccc(Oc2ccccc2)c1 (stereo unspecified) end up with in this test?
Key: label 0

Exercise: What classification did COP(=O)(NC(C)=O)SC (stereo unspecified) end up with in this test?
Key: label 0

Exercise: What classification did C=C1CC[C@@]2(O)[C@H]3Cc4ccc(O)c5c4[C@@]2(CCN3CC2CC2)[C@H]1O5 end up with in this test?
Key: label 0

Exercise: What classification did CN(C)N end up with in this test?
Key: label 0

Exercise: What classification did CCN(C)N=O end up with in this test?
Key: label 0

Exercise: What classification did Clc1ccc(C(c2ccc(Cl)cc2)C(Cl)Cl)cc1 end up with in this test?
Key: label 0

Exercise: What classification did C[C@]1(O)CC[C@H]2[C@@H]3CCC4=CC(=O)CC[C@]4(C)[C@@]3(F)[C@@H](O)C[C@@]21C end up with in this test?
Key: label 0

Exercise: What classification did CCCCCCCCC(=O)NCc1ccc(O)c(OC)c1 end up with in this test?
Key: label 0

Exercise: What classification did Nc1ccccc1C(=O)OCCc1ccccc1 end up with in this test?
Key: label 0

Exercise: What classification did CCOP(=S)(OCC)Oc1cc(C)nc(C(C)C)n1 end up with in this test?
Key: label 0

Exercise: What classification did C[C@]12CC[C@H](O)CC1=CC[C@@H]1[C@@H]2CC[C@]2(C)C(=O)CC[C@@H]12 end up with in this test?
Key: label 0

Exercise: What classification did OC[P+](CO)(CO)CO end up with in this test?
Key: label 0

Exercise: What classification did OCc1ccco1 end up with in this test?
Key: label 0

Exercise: What classification did OCCN(CCO)CCO end up with in this test?
Key: label 0

Exercise: What classification did CC1CC(=O)O1 (stereo unspecified) end up with in this test?
Key: label 0

Exercise: What classification did Nc1ccc(-c2ccc(N)c(Cl)c2)cc1Cl end up with in this test?
Key: label 0

Exercise: What classification did CC(C)CON=O end up with in this test?
Key: label 0

Exercise: What classification did Nc1ccncc1 end up with in this test?
Key: label 0

Exercise: What classification did c1nc[nH]n1 end up with in this test?
Key: label 0

Exercise: What classification did CCCN(CCC)N=O end up with in this test?
Key: label 0

Exercise: What classification did CCC[N+]1(C)CCCC1 end up with in this test?
Key: label 0

Exercise: What classification did COC(=O)c1sccc1S(=O)(=O)NC(=O)Nc1nc(C)nc(OC)n1 end up with in this test?
Key: label 0

Exercise: What classification did CN1C(=O)NC(=O)C(C)(C2=CCCCC2)C1=O (stereo unspecified) end up with in this test?
Key: label 0

Exercise: What classification did COc1c(C(C)(C)C)cc([N+](=O)[O-])c(C)c1[N+](=O)[O-] end up with in this test?
Key: label 0

Exercise: What classification did O=c1nc(O)n(Cl)c(=O)n1Cl end up with in this test?
Key: label 0

Exercise: What classification did Cc1cc(C)cc(C)c1 end up with in this test?
Key: label 0

Exercise: What classification did O=[N+]([O-])c1cc([As](=O)(O)O)ccc1O end up with in this test?
Key: label 0

Exercise: What classification did CCCC[N+]1(C)CCCCC1 end up with in this test?
Key: label 0

Exercise: What classification did C[C@]12C=CC3=C4CCC(=O)C=C4CC[C@H]3[C@@H]1CC[C@@H]2O end up with in this test?
Key: label 0

Exercise: What classification did O=[N+]([O-])c1cc(Cl)c(Cl)c(Cl)c1 end up with in this test?
Key: label 0

Exercise: What classification did CNC(C)(C)Cc1ccccc1 end up with in this test?
Key: label 0

Exercise: What classification did BrCc1ccc(Br)cc1 end up with in this test?
Key: label 0

Exercise: What classification did O=P(O)(O)CCCl end up with in this test?
Key: label 0

Exercise: What classification did CCCCCCCCSC(=O)Oc1cc(Cl)nnc1-c1ccccc1 end up with in this test?
Key: label 0

Exercise: What classification did CCN(CC)C(=O)C(C)Oc1cccc2ccccc12 (stereo unspecified) end up with in this test?
Key: label 0

Exercise: What classification did COC(=O)c1ccc(CBr)cc1 end up with in this test?
Key: label 0

Exercise: What classification did CC(Cl)CCl (stereo unspecified) end up with in this test?
Key: label 0

Exercise: What classification did COc1ccc(CO)cc1 end up with in this test?
Key: label 0

Exercise: What classification did CCCCCCCCCCCC[N+](C)(C)CCOc1ccccc1 end up with in this test?
Key: label 1

Exercise: What classification did CN(C)c1ccccc1 end up with in this test?
Key: label 0

Exercise: What classification did Cc1cccc(C)c1N end up with in this test?
Key: label 0
